Sourced from patent EP0938471B1

- Target Or System: MMP-9 (Homo sapiens, UniProt P14780)
- Sequence (P14780 94-707): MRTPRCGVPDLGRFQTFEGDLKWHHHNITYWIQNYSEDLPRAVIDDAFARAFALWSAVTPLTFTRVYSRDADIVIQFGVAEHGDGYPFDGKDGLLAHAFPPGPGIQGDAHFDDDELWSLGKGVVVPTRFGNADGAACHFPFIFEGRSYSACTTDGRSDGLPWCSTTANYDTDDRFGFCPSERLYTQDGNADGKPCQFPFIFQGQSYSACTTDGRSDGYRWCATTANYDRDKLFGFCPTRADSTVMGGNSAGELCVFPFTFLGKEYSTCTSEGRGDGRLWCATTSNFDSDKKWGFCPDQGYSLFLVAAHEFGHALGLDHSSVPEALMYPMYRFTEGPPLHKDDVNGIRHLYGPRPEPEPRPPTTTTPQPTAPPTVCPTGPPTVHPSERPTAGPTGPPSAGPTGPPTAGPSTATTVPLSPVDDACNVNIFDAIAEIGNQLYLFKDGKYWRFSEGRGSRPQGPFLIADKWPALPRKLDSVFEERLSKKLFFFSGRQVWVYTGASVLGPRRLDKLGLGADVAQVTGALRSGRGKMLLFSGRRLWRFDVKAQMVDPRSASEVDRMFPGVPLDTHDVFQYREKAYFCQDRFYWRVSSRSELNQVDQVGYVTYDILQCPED
- Test Method Notes: MMP-9 inhibition (thiopeptide or fluorescent peptide substrate assay)
- Type: biochemical
- Settings: read-out: MMP-9 IC50
Endpoint: IC50 (nM)

Completed entries (count: 3):
COc1ccc(S(=O)(=O)N(Cc2cccnc2)c2c(C)cc(C=CC(=O)N3CCOCC3)cc2C(=O)NO)cc1	3.5
COc1ccc(S(=O)(=O)N(Cc2cccnc2)c2c(C)cc(-c3ccccc3C(F)(F)F)cc2C(=O)NO)cc1	15
COc1ccc(S(=O)(=O)N(Cc2ccccc2)c2c(CN3CCN(C)CC3)cccc2C(=O)NO)cc1	6.1

(A) COc1ccc(S(=O)(=O)N(Cc2cccnc2)c2c(C)cc(-c3ccc(Cl)s3)cc2C(=O)NO)cc1
(B) COc1ccc(S(=O)(=O)N(Cc2ccc(N3CCN(C)CC3)cc2)c2c(C)cccc2C(=O)NO)cc1
Incoming: In the pair A and B , the larger recorded IC50 belongs to which? # respond with the chosen item's label
Outgoing: B

###

- Target Or System: TACE (Homo sapiens)
- Sequence (P78536 215-824): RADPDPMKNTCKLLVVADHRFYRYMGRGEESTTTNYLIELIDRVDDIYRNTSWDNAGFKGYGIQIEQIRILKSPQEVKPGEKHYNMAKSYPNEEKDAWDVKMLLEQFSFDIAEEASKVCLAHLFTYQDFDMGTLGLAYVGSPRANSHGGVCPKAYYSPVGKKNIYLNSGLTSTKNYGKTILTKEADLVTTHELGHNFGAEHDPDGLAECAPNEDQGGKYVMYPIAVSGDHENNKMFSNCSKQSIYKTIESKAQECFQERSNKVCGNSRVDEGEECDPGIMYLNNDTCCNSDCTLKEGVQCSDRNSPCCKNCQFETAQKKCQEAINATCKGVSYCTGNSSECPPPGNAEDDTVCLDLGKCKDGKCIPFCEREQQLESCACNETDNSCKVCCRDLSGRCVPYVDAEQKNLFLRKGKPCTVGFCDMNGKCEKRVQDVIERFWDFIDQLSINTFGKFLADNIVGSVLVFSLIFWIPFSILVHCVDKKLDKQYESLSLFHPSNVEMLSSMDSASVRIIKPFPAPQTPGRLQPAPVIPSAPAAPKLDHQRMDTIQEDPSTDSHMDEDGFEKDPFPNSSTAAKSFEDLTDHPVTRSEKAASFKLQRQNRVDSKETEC
- Test Method Notes: TACE inhibition (fluorescent peptidyl substrate)
- Assay type: biochemical
- Settings: read-out: TACE IC50
pIC50: −log10 of the molar value.
Endpoint: pIC50

# count of solved cases: 2
COc1ccc(S(=O)(=O)N(Cc2ccccc2)c2c(OCc3ccccc3)cccc2C(=O)NO)cc1	< 6.00
COc1ccc(S(=O)(=O)N(Cc2ccccc2)c2ccccc2C(=O)NO)cc1	< 6.00

Incoming: Reported pIC50, compound `COc1ccc(S(=O)(=O)N(Cc2ccccc2Br)c2c(C)cc(C)cc2C(=O)NO)cc1` : ____
Outgoing: < 6.00

###

- Target Or System: UniProtKB P45452
- Test Method Notes: MMP-13 inhibition (thiopeptide or fluorescent peptide substrate assay)
- Format: biochemical
- Settings: read-out: MMP-13 IC50
Endpoint: IC50 (nM)

Cc1cc(C)c(N(Cc2ccccc2)S(=O)(=O)c2ccc(F)cc2)c(C(=O)NO)c1	1370
CCN(c1c(C)cc(C)cc1C(=O)NO)S(=O)(=O)c1ccc(OC)cc1	48
Cc1cccc(C(=O)NO)c1N(Cc1cccnc1)S(=O)(=O)c1ccc(-c2cc3ccccc3s2)cc1	38

(1) COc1ccc(S(=O)(=O)N(Cc2cccnc2)c2c(C(=O)NO)cccc2C(=O)OC(C)(C)C)cc1
(2) COc1ccc(S(=O)(=O)N(Cc2ccccc2)c2c(C)ccc(C)c2C(=O)NO)cc1
(3) CCN(Cc1ccncc1)C(=O)C=Cc1cc(C)c(N(C)S(=O)(=O)c2ccc(OC)cc2)c(C(=O)NO)c1
(4) CCCOc1ccc(S(=O)(=O)N(Cc2ccccc2)c2c(C)cc(C)cc2C(=O)NO)cc1
(5) COc1ccc(S(=O)(=O)N2CCCOc3cccc(C(=O)NO)c32)cc1
Incoming: Rank by IC50 (largest to smallest). Respond with an ordered listing of the labels, as requested.
Outgoing: 5, 4, 2, 1, 3
(5: 350 nM, 4: 104 nM, 2: 29 nM, 1: 13 nM, 3: 5.8 nM)

###

- Target Or System: MMP-13 (Homo sapiens, UniProt P45452)
- Test Method Notes: MMP-13 inhibition (thiopeptide or fluorescent peptide substrate assay)
- Type: biochemical
- Settings: read-out: MMP-13 IC50
Endpoint: IC50 (nM)

COCCOCOc1cccc(C(=O)NO)c1N(Cc1ccccc1)S(=O)(=O)c1ccc(OC)cc1	138
COc1ccc(S(=O)(=O)N(Cc2ccccn2)c2c(C)cccc2C(=O)NO)cc1	18
COc1ccc(S(=O)(=O)N(Cc2cccnc2)c2c(C)cc(C=CC(=O)N3CCOCC3)cc2C(=O)NO)cc1	1.6

(P) COc1ccc(S(=O)(=O)N(Cc2cccc(Br)c2)c2c(C)cc(C)cc2C(=O)NO)cc1
(Q) COc1ccc(S(=O)(=O)N(Cc2ccccc2)c2cc(C)ccc2C(=O)NO)cc1
Incoming: // compare measured IC50, left P , right Q , return larger Identify your selection by its label.
Outgoing: Q

(I) COc1ccc(S(=O)(=O)N(Cc2cccnc2)c2c(C)cc(C=CC(=O)N(C)C)cc2C(=O)NO)cc1
(II) COc1ccc(S(=O)(=O)N(Cc2ccccc2)c2c(C(=O)NO)cccc2[N+](=O)[O-])cc1
(III) COc1ccc(S(=O)(=O)N(C)c2c(C)cc(CCc3ccc(-c4ccccc4)cc3)cc2C(=O)NO)cc1
(IV) COc1ccc(S(=O)(=O)N(Cc2cccnc2)c2c(C)cc(-c3ccc(C=NO)cc3)cc2C(=O)NO)cc1
(V) COc1ccc(S(=O)(=O)N(Cc2ccccc2)c2ccc(C)cc2C(=O)NO)cc1
Incoming: Could you please sort these 5 entries by IC50 from high to low? Reply: labels, ordered per the request.
Outgoing: V, II, III, IV, I

(a) COc1ccc(S(=O)(=O)N(Cc2cccnc2)c2c(C)cc(-c3ccccc3C=NO)cc2C(=O)NO)cc1
(b) COc1ccc(S(=O)(=O)N(Cc2ccccc2)c2c(C#N)cc(C)cc2C(=O)NO)cc1
Incoming: Which numeric IC50 is bigger, that of a or that of b ? Respond using the label that marks the chosen record.
Outgoing: b
(b: 53 nM, a: 3.1 nM)

(1) COCc1cccc(C(=O)NO)c1N(Cc1cccnc1)S(=O)(=O)c1ccc(OC)cc1
(2) C#Cc1cc(C)c(N(Cc2ccccc2)S(=O)(=O)c2ccc(OC)cc2)c(C(=O)NO)c1
(3) COc1ccc(S(=O)(=O)N(Cc2cccnc2)c2c(C)cc(-c3cccc(C=NO)c3)cc2C(=O)NO)cc1
(4) COc1ccc(S(=O)(=O)N(Cc2cccnc2)c2c(C)cc(-c3ccccc3C(F)(F)F)cc2C(=O)NO)cc1
(5) COc1ccc(S(=O)(=O)N(Cc2ccc(C(=O)NCCN3CCCCC3)cc2)c2c(C)cccc2C(=O)NO)cc1
Incoming: Order field: IC50 | Direction: descending (largest first) Provide your answer as the labels ordered per the instruction.
Outgoing: 1, 5, 2, 4, 3
(1: 54 nM, 5: 35 nM, 2: 18 nM, 4: 10 nM, 3: 3.6 nM)

###

- Target Or System: MMP-9 (Homo sapiens)
- Test Method Notes: MMP-9 inhibition (thiopeptide or fluorescent peptide substrate assay)
- Format: biochemical
- Settings: read-out: MMP-9 % inhibition; footnote: 1µM
Endpoint: inhibition at 1 µM (%)

COc1ccc(S(=O)(=O)N(Cc2cccnc2)c2c(C(=O)O)cccc2C(=O)NO)cc1	36

(1) Cc1cccc(C(=O)NO)c1N(Cc1cccnc1)S(=O)(=O)c1ccc(-c2cccs2)cc1
(2) Cc1cccc(C(=O)NO)c1N(Cc1cccnc1)S(=O)(=O)c1ccc(-c2ccc(C(F)(F)F)cc2)cc1
(3) Cc1cccc(C(=O)NO)c1N(Cc1cccnc1)S(=O)(=O)c1ccc(-c2cc3ccccc3s2)cc1
Incoming: In this exercise, place the 3 compounds in ascending sequence of their recorded inhibition at 1 µM. // respond by listing labels in the order requested
Outgoing: 2, 1, 3

###

- Target Or System: UniProt P45452
- Test Method Notes: MMP-13 inhibition (thiopeptide or fluorescent peptide substrate assay)
- Type: biochemical
- Settings: read-out: MMP-13 IC50
Endpoint: IC50 (nM)

Consider the reported IC50 for these compounds:
COc1ccc(S(=O)(=O)N(Cc2ccc(OCCN3CCCCC3)cc2)c2c(C)cc(Br)cc2C(=O)NO)cc1	3.1
COc1ccc(S(=O)(=O)N(Cc2cccnc2)c2c(C)cc(C)cc2C(=O)NO)cc1	11
COc1ccc(S(=O)(=O)N(C)c2c(CN3CCCC3)cc(Br)cc2C(=O)NO)cc1	13
COc1ccc(S(=O)(=O)N(Cc2ccccc2)c2c(OCCCO)cccc2C(=O)NO)cc1	71
COc1ccc(S(=O)(=O)N(C)c2c(CN3CCN(C)CC3)cccc2C(=O)NO)cc1	12

(A) COc1ccc(S(=O)(=O)N(Cc2cccnc2)c2c(C(=O)NO)cc(OC)c(OC)c2OC)cc1
(B) CCCCCCCCN(C)C(=O)CCc1cc(C)c(N(C)S(=O)(=O)c2ccc(OC)cc2)c(C(=O)NO)c1
(C) COc1ccc(S(=O)(=O)N(Cc2ccccc2)c2c(OCCCCC(=O)NO)cccc2C(=O)NO)cc1
(D) COc1ccc(S(=O)(=O)N(Cc2cccnc2)c2c(C)cc(-c3ccc(C(C)=O)s3)cc2C(=O)NO)cc1
Incoming: Hi! Can you put these in order of IC50, lowest number first? Give your ranking as a list of the labels in the requested order.
Outgoing: D, B, C, A
(D: 6.4 nM, B: 11 nM, C: 34 nM, A: 62 nM)

###

- Target Or System: MMP-9 (Homo sapiens)
- Test Method Notes: MMP-9 inhibition (thiopeptide or fluorescent peptide substrate assay)
- Assay type: biochemical
- Settings: read-out: MMP-9 % inhibition; footnote: 1µM
Endpoint: inhibition at 1 µM (%)

COc1ccc(-c2ccc(S(=O)(=O)N(Cc3cccnc3)c3c(C)cccc3C(=O)NO)cc2)c(OC)c1 [Example 411]	39
CCOC(=O)CCCCN(c1c(C)cccc1C(=O)NO)S(=O)(=O)c1ccc(OC)cc1 [Example 384]	52
CCCCCCCCN(c1c(CN2CCN(C)CC2)cccc1C(=O)NO)S(=O)(=O)c1ccc(OC)cc1 [Example 325]	49
